Value source: ChEMBL document CHEMBL3880408

# key: entry, value: Kp
# EXPERIMENT_SUMMARY: Ratio of drug level in brain to plasma in Sprague-Dawley rat by HPLC and MS-MS method
# Type: ADME, cell-free
# EXPERIMENTAL_PARAMETERS: read-out: BPR

>  <SMILES_NOTATION>
Cn1c(OCc2cc(-c3cccc(Cl)c3)on2)nnc1-c1cc[nH]c(=O)c1

>  <Kp>
< 0.5

$$$$
>  <SMILES_NOTATION>
C[C@@H](Oc1nnc(-c2cn[nH]c(=O)c2)n1C)c1noc(-c2cccc(Cl)c2)n1

>  <Kp>
< 0.5

$$$$
>  <SMILES_NOTATION>
C[C@@H](Oc1nnc(-c2cc[nH]c(=O)c2)n1C)c1nnn(-c2cccc(Cl)c2)n1

>  <Kp>
< 0.5

$$$$
>  <SMILES_NOTATION>
C[C@@H](Oc1nnc(-c2ccn(C)c(=O)c2)n1C)c1cc(-c2cccc(Cl)c2)on1

>  <Kp>
< 0.5

$$$$
>  <SMILES_NOTATION>
C[C@@H](Oc1nnc(-c2cn[nH]c(=O)c2)n1C)c1nnn(-c2cccc(Cl)c2)n1

>  <Kp>
< 0.5

$$$$
